- TARGET: UniProt:Q06187
- PROTOCOL SUMMARY: In Vitro BTK Kinase Assay: BTK-POLYGAT-LS ASSAY
- Assay type: biochemical
- ASSAY SETUP: ATP 10 μM, polyGAT 100 nM, BTK 0.25 nM, 30 minutes
pIC50: −log10 of the molar value.
VALUE KIND: pIC50

Please list pIC50 recorded for the molecule Cc1cc(-c2ccnc(NC(=O)C3CC3)c2)ccc1CNC(=O)c1ccn(C(C)(C)C)n1
8.00 to 9.00

Please list pIC50 recorded for the molecule Cc1cc(CNC(=O)c2noc(C(C)(C)C)n2)c(F)cc1-c1ccnc(NC(=O)C2CC2)c1
6.00 to 8.00

Please list pIC50 recorded for the molecule CC(C)(C)c1noc(C(=O)N[C@@H]2CCCCc3cc(-c4ccnc(NC(=O)[C@@H]5CC56CCC6)c4)ccc32)n1
≥ 9.00

Please list pIC50 recorded for the molecule CC(C)(C)c1nc(C(=O)N[C@@H]2CCCCc3c2ccc(-c2ccnc(NC(=O)C4CC4)c2)c3F)no1
≥ 9.00

Please list pIC50 recorded for the molecule Cc1cc(-c2ccnc(NC(=O)C3CC3)c2)ccc1CNC(=O)c1noc(C(C)(C)CO)n1
8.00 to 9.00

Please list pIC50 recorded for the molecule Cc1c([C@@H](C)NC(=O)c2noc(C(C)(C)C)n2)ccc(-c2ccnc(NC(=O)C3CC3)c2)c1F
≥ 9.00

Please list pIC50 recorded for the molecule Cc1cc(-c2ccnc(NC(=O)C3CC3)c2)ccc1CNC(=O)c1cn(C(C)(C)C)cn1
6.00 to 8.00

Please list pIC50 recorded for the molecule C[C@@H](NC(=O)c1noc(C(C)(C)C)n1)c1ccc(-c2ccnc(NC(=O)C3CC3)c2)cc1Cl
≥ 9.00

Please list pIC50 recorded for the molecule CC(C)(C)c1nc(C(=O)N[C@@H]2CCN(CC(F)(F)F)Cc3cc(-c4ccnc(NC(=O)C5CC5)c4)ccc32)no1
≥ 9.00

====

- TARGET: BTK (Homo sapiens (Human))
- PROTOCOL SUMMARY: In Vitro PD Assay in Human Whole Blood (pBTK assay)
- Format: cell-based
- ASSAY SETUP: 37° C. for 30 min, 50% inhibition of ECL signal
VALUE KIND: IC50

Look up BTK (Homo sapiens (Human)) data: IC50 of Cc1cc(-c2ccnc(NC(=O)[C@H]3C[C@@H]3F)c2)ccc1CNC(=O)c1noc(C(C)(C)C)n1 [Compound 37] , then report it.
500 to 10000 nM

Look up BTK (Homo sapiens (Human)) data: IC50 of Cc1cc(-c2cc(NC(=O)C3CC3)ncc2F)ccc1CNC(=O)c1noc(C(C)(C)C)n1 [Compound 106] , then report it.
500 to 10000 nM

Look up BTK (Homo sapiens (Human)) data: IC50 of Cc1cc(-c2ccnc(NC(=O)C3CC3)c2)ccc1[C@@H](C)NC(=O)c1noc(C(C)(C)C)n1 [Compound 19] , then report it.
≤ 100 nM

Look up BTK (Homo sapiens (Human)) data: IC50 of Cc1cc(-c2ccnc(NC(=O)C3CC3(C)C)c2)ccc1CNC(=O)c1noc(C(C)(C)C)n1 (stereo not shown) [Compound 48] , then report it.
> 10000 nM

Look up BTK (Homo sapiens (Human)) data: IC50 of CC(C)(C)c1noc(C(=O)NCc2ccc(-c3ccnc(NC(=O)C4CC4)c3)c(F)c2C2CC2)n1 [Compound 34] , then report it.
500 to 10000 nM

Look up BTK (Homo sapiens (Human)) data: IC50 of CC(C)(C)c1nc(C(=O)NCc2ccc(-c3ccnc(NC(=O)C4CC4)c3)cc2C2CC2)no1 [Compound 77] , then report it.
100 to 500 nM

Look up BTK (Homo sapiens (Human)) data: IC50 of CC(C)(C)c1nc(C(=O)NCc2cc(F)c(-c3ccnc(NC(=O)C4CC4)c3)cc2C(F)(F)F)no1 [Compound 62] , then report it.
500 to 10000 nM

====

I'd appreciate it if you could supply IC50 values for the items below.
- TARGET: BTK (Homo sapiens (Human))
- PROTOCOL SUMMARY: In Vitro BTK Kinase Assay: BTK-POLYGAT-LS ASSAY
- Format: biochemical
- ASSAY SETUP: ATP 10 μM, polyGAT 100 nM, BTK 0.25 nM, 30 minutes

Please list IC50 recorded for the compound Cc1cc(-c2ccnc(NC(=O)[C@H]3C[C@@H]3F)c2)ccc1CNC(=O)c1noc(C(C)(C)C)n1
≤ 1 nM

Please list IC50 recorded for the compound Cc1cc(-c2ccnc(NC(=O)C3CC34CCC4)c2)ccc1CNC(=O)c1noc(C(C)(C)C)n1 (stereo not shown)
1 to 10 nM

Please list IC50 recorded for the compound Cc1cc(-c2ccnc(NC(=O)C3CC3(F)F)c2)ccc1CNC(=O)c1noc(C(C)(C)C)n1 (stereo not shown)
≤ 1 nM

Please list IC50 recorded for the compound Cc1cc(-c2ccnc(NC(=O)[C@H]3C[C@H]3F)c2)ccc1CNC(=O)c1noc(C(C)(C)C)n1 (single isomer, unassigned)
≤ 1 nM

====

- TARGET: BTK (Homo sapiens (Human), UniProt Q06187)
- Sequence (Q06187 whole entry): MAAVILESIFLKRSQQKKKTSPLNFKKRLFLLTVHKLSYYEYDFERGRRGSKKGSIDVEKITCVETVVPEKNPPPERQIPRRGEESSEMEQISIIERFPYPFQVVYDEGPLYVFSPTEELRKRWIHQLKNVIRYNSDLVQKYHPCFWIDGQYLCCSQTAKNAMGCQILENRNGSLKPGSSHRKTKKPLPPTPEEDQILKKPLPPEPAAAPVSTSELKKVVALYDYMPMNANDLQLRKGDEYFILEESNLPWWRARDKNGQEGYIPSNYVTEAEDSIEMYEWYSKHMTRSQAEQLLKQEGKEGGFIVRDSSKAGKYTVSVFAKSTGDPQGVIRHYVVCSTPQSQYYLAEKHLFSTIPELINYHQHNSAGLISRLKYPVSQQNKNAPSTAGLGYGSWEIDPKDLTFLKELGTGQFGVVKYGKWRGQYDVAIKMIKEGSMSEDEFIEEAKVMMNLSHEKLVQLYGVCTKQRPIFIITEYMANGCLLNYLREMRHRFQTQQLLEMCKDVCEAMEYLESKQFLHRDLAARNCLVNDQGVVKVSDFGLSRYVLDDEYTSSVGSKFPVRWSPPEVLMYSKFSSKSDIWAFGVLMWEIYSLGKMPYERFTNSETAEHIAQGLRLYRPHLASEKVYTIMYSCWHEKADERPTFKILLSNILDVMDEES
- PROTOCOL SUMMARY: In Vitro PD Assay in Human Whole Blood (pBTK assay)
- Format: cell-based
- ASSAY SETUP: 37° C. for 30 min, 50% inhibition of ECL signal
pIC50: −log10 of the molar value.
VALUE KIND: pIC50

Please list pIC50 recorded for the compound CC(C)(C)c1noc(C(=O)N[C@@H]2CCCCc3cc(-c4ccnc(NC(=O)C5CC5(F)F)c4)ccc32)n1 (stereo partly shown) [Compound 58]
5.00 to 6.30

Please list pIC50 recorded for the compound CC(C)(C)c1ncc(C(=O)NCc2ccc(-c3ccnc(NC(=O)C4CC4)c3)c(F)c2C2CC2)o1 [Compound 30]
< 5.00

Please list pIC50 recorded for the compound C[C@@H](NC(=O)c1noc(C(C)(C)C)n1)c1ccc(-c2ccnc(NC(=O)C3CC3)c2)cc1Cl [Compound 21]
≥ 7.00

Please list pIC50 recorded for the compound CC(C)(C)c1nc(C(=O)NCc2cc(F)c(-c3ccnc(NC(=O)C4CC4)c3)cc2Cl)no1 [Compound 104]
6.30 to 7.00

Please list pIC50 recorded for the compound Cc1cc(-c2ccnc(NC(=O)[C@@H]3C[C@H]3F)c2)ccc1CNC(=O)c1noc(C(C)(C)C)n1 [Compound 38]
5.00 to 6.30

Please list pIC50 recorded for the compound Cc1cc(-c2ccnc(NC(=O)C3CC3)c2)ccc1CNC(=O)c1noc(C(C)(C)CF)n1 [Compound 41]
5.00 to 6.30

Please list pIC50 recorded for the compound Cc1cc(-c2ccnc(NC(=O)C3(F)CC3)c2)ccc1CNC(=O)c1noc(C(C)(C)C)n1 [Compound 82]
5.00 to 6.30

====

- TARGET: BTK (Homo sapiens (Human))
- PROTOCOL SUMMARY: In Vitro PD Assay in Human Whole Blood (pBTK assay)
- Type: cell-based
- ASSAY SETUP: 37° C. for 30 min, 50% inhibition of ECL signal
I'd appreciate it if you could supply IC50 values for the items below.

Look up BTK (Homo sapiens (Human)) data: IC50 of Cc1cc(-c2ccnc(NC(=O)C3CC3)c2)ccc1CNC(=O)c1ncc(C(C)(C)C)o1 [Compound 98] , then report it.
500 to 10000 nM

Look up BTK (Homo sapiens (Human)) data: IC50 of C[C@@H](NC(=O)c1nc(C(C)(C)C)no1)c1ccc(-c2ccnc(NC(=O)C3CC3)c2)cc1Cl [Compound 91] , then report it.
100 to 500 nM

Look up BTK (Homo sapiens (Human)) data: IC50 of CC(C)(C)c1noc(C(=O)NCc2ccc(-c3ccnc(NC(=O)C4CC4)c3)c(F)c2C(F)(F)F)n1 [Compound 69] , then report it.
100 to 500 nM

Look up BTK (Homo sapiens (Human)) data: IC50 of CC(C)(C)c1noc(C(=O)NCc2ccc(-c3ccnc(NC(=O)C4CC4)c3)c(F)c2Cl)n1 [Compound 15] , then report it.
≤ 100 nM

====

- TARGET: BTK (Homo sapiens (Human), UniProt Q06187)
- PROTOCOL SUMMARY: In Vitro PD Assay in Human Whole Blood (pBTK assay)
- Type: cell-based
- ASSAY SETUP: 37° C. for 30 min, 50% inhibition of ECL signal
pIC50: −log10 of the molar value.
I'd appreciate it if you could supply pIC50 values for the items below.

Look up BTK (Homo sapiens (Human), UniProt Q06187) data: pIC50 of Cc1cc(-c2ccnc(NC(=O)[C@@H]3C[C@@H]3F)c2)ccc1CNC(=O)c1noc(C(C)(C)C)n1 (single isomer, unassigned) [Compound 3] , then report it.
≥ 7.00

Look up BTK (Homo sapiens (Human), UniProt Q06187) data: pIC50 of Cc1cc(-c2ccnc(NC(=O)[C@H]3C[C@@H]3C)c2)ccc1CNC(=O)c1noc(C(C)(C)C)n1 [Compound 5] , then report it.
≥ 7.00

Look up BTK (Homo sapiens (Human), UniProt Q06187) data: pIC50 of CC(C)(C)c1noc(C(=O)N[C@@H]2CCCCc3cc(-c4ccnc(NC(=O)[C@@H]5[C@@H]6COC[C@@H]65)c4)ccc32)n1 [Compound 46] , then report it.
5.00 to 6.30

Look up BTK (Homo sapiens (Human), UniProt Q06187) data: pIC50 of CC(C)(C)c1noc(C(=O)NC2CCCOc3cc(-c4ccnc(NC(=O)C5CC5)c4)ccc32)n1 (stereo not drawn) [Compound 55] , then report it.
5.00 to 6.30

Look up BTK (Homo sapiens (Human), UniProt Q06187) data: pIC50 of Cc1cc(-c2ccnc(NC(=O)C3CC3)c2)ccc1CNC(=O)c1nc(C(C)(C)CF)no1 [Compound 39] , then report it.
6.30 to 7.00

Look up BTK (Homo sapiens (Human), UniProt Q06187) data: pIC50 of Cc1cc(-c2cc(NC(=O)C3CC3)ncc2F)ccc1[C@@H](C)NC(=O)c1noc(C(C)(C)C)n1 [Compound 20] , then report it.
≥ 7.00

Look up BTK (Homo sapiens (Human), UniProt Q06187) data: pIC50 of C[C@@H](NC(=O)c1noc(C(C)(C)C)n1)c1ccc(-c2ccnc(NC(=O)C3CC3)c2)cc1OC(F)(F)F [Compound 83] , then report it.
5.00 to 6.30

Look up BTK (Homo sapiens (Human), UniProt Q06187) data: pIC50 of Cc1cc(-c2ccnc(NC(=O)C3CC3)c2)ccc1CNC(=O)c1cnc(C(C)(C)C)s1 [Compound 81] , then report it.
5.00 to 6.30

Look up BTK (Homo sapiens (Human), UniProt Q06187) data: pIC50 of CC(C)(C)c1nc(C(=O)N[C@@H]2CCCCc3cc(-c4ccnc(NC(=O)C5CC5)c4)ccc32)no1 [Compound 67] , then report it.
≥ 7.00

Look up BTK (Homo sapiens (Human), UniProt Q06187) data: pIC50 of Cc1cc(-c2ccnc(NC(=O)C3CC3(F)F)c2)ccc1CNC(=O)c1noc(C(C)(C)C)n1 (stereo not drawn) [Compound 49] , then report it.
5.00 to 6.30

Look up BTK (Homo sapiens (Human), UniProt Q06187) data: pIC50 of CC(C)c1cc(-c2ccnc(NC(=O)C3CC3)c2)ccc1CNC(=O)c1noc(C(C)(C)C)n1 [Compound 56] , then report it.
< 5.00

Look up BTK (Homo sapiens (Human), UniProt Q06187) data: pIC50 of CC(C)(C)c1nc(C(=O)NCc2ccc(-c3ccnc(NC(=O)C4CC4)c3)c(F)c2Cl)no1 [Compound 14] , then report it.
≥ 7.00

Look up BTK (Homo sapiens (Human), UniProt Q06187) data: pIC50 of Cc1cc(-c2cc(NC(=O)C3CC3)ncc2C(F)(F)F)ccc1CNC(=O)c1noc(C(C)(C)C)n1 [Compound 26] , then report it.
< 5.00

Look up BTK (Homo sapiens (Human), UniProt Q06187) data: pIC50 of CC(C)(C)c1nc(C(=O)NC2CCCOc3cc(-c4ccnc(NC(=O)C5CC5)c4)ccc32)no1 (stereo not drawn) [Compound 65] , then report it.
6.30 to 7.00

Look up BTK (Homo sapiens (Human), UniProt Q06187) data: pIC50 of Cc1cc(-c2cc(NC(=O)C3CC3)ncc2F)c(F)cc1CNC(=O)c1noc(C(C)(C)C)n1 [Compound 103] , then report it.
6.30 to 7.00
